# Tested on: SNB-19 CNS
# Test Name: NCI tumour cell line growth inhibition, 48 h
The molecules listed here are annotated with their TGI.
Just the number please, in µM, no unit attached.

Here are 2 molecules together with their reported answers.
• Oc1cc(Cl)ccc1Cc1ccc(Cl)cc1O = 45.1
• OCCO[P+]1(OCCO)n2c3ccc2C(c2ccccc2)=C2C=CC(=N2)C(c2ccccc2)=c2ccc(n21)=C(c1ccccc1)C1=NC(=C3c2ccccc2)C=C1 = 1.96

Here's the next entry for you.
Name the recorded TGI of `Cc1ccc(Oc2nc3ccccc3cc2-c2nnc(Cn3c(COc4ccccc4)nc4ccccc43)o2)cc1` , assay system SNB-19 CNS. 17

###

# System: SNB-19 CNS
# Test Name: NCI tumour cell line growth inhibition, 48 h; in the data active = GI50 below about 0.43 µM; inactive = the rest
Reply using exactly one outcome from active, inactive

- COC(=O)[C@@H]1CCCN1C(=O)[C@H]1CCCN1C(=O)[C@@H](Cc1c[nH]c2ccccc12)NC(=S)Nc1cc(C(F)(F)F)cc(C(F)(F)F)c1: inactive
- NC1=NC(c2ccc(F)cc2)C2=C(N1)c1ccc3ccccc3c1OCC2 (centres undefined): inactive
- COc1cc2ncn(-c3cc(OCc4ccccc4S(C)(=O)=O)c(C#N)s3)c2cc1OC: inactive
- Oc1cc(Cl)ccc1Cc1ccc(Cl)cc1O: inactive
- O=C1OCC2=C1C(c1cccc(C(F)(F)F)c1)c1cc3c(cc1N2CCO)CCC3 (centres undefined): active
- Oc1ccc(CN(Cc2ccc(C(F)(F)F)cc2)Cc2ccc(O)c3ncccc23)c2cccnc12: active

Any idea what this test logged for `O=[N+]([O-])/C=C/c1ccc([N+](=O)[O-])cc1` ? inactive

Record lookup: outcome of this test for `OCc1ccc(Oc2c3ccccc3nc3occc23)cc1` ? inactive

How did this test come out for Cc1ccc2[nH]c(C(=O)NN3C(=O)C(C)SC34CCCCC4C)c(-c3ccccc3)c2c1 (centres undefined) ? inactive

###

# Tested on: HOP-92 NSCLC
# Test Name: NCI tumour cell line growth inhibition, 48 h
Metric: TGI (µM)
Give just the numeric value; µM need not be written.

Some molecules with recorded TGI:
- O=c1[nH]c2ccccc2c2oc(-c3ccccc3)nc12: 56.7
- CCCCCCCCC/C=C1\CC(CO)(COC(=O)c2ccccc2)OC1=O (centres undefined): 30.4

Supply TGI value. Item: CC(C)C(C/C=C1\CC(CO)(COC(=O)CC(C(C)C)C(C)C)OC1=O)C(C)C (centres undefined) 16.6

Consider the molecule O=C(C#Cc1cn(C2CC(O)C(CO)O2)c(=O)[nH]c1=O)c1ccccc1 (centres undefined) and give its recorded TGI. 53.2

Query TGI for `NCCCCNC1(c2cc3ccccc3s2)CCCCC1` 20.8

Return reported TGI. Input molecule: `COc1ccc(/C=N/n2c(Cc3ccc(Cl)cc3)n[nH]c2=O)c(OC)c1` 65.9

###

# Tested on: IGROV1 ovarian
# Test Name: NCI tumour cell line growth inhibition, 48 h
// TGI lookup, one value per entry

• CC(=O)O[C@H]1CC[C@@]2(C)C(=CC[C@@H]3C2CC[C@]2(C)Nc4[nH]ncc4CC32)C1 (stereo not given in full) = > 100 µM
• CO/C(=N\N=C\c1cccc(C(F)(F)F)c1)c1ccncc1 = 79.3 µM
• CCC[CH2][Sn]1([CH2]CCC)[O]C(=O)CN=Cc2ccccc2[O]1 = > 100 µM
• CC(=O)OC12CC(C)C3(O)C4C=C(C)C(=O)[C@@]4(O)CC(CO)=C[C@H]3C1C2(C)C (stereo not given in full) = > 1000 µM

Then there is this compound:
For the compound `C[Si]12OCCCN(CCO1)CCO2` , give its measured TGI value. > 100 µM
